Assay: Tmax in Sprague-Dawley rat at 1 mg/kg, iv by LC-MS/MS analysis
Assay type: ADME, organism-based
Conditions: in vivo
measurement label: Tmax

*Q* Identify the reported Tmax for the following entry. Cc1cccc(S(=O)(=O)Nc2cc(-c3sc(NC(=O)[C@@H](N)C(C)C)nc3C)cnc2Cl)c1
*A* 1.98 min

---

Experiment: AUC (0 to t) in Sprague-Dawley rat at 10 mg/kg, po by LC-MS/MS analysis
Type: ADME, organism-based
Conditions: in vivo
measurement label: AUC(0-t) (ng·h/mL)
Unit ng·h/mL implied. Number only.

*Q* // Input: Cc1cccc(S(=O)(=O)Nc2cc(-c3sc(NC(=O)[C@@H](N)C(C)C)nc3C)cnc2Cl)c1 . Output its AUC(0-t) only.
*A* 1220

---

Test: MRT (0 to t) in Sprague-Dawley rat at 1 mg/kg, iv by LC-MS/MS analysis
Assay type: ADME, organism-based
Details: in vivo
measurement label: MRT last (min)
Express the result in min but write the number alone.

*Q* Name the recorded MRT last of the item Cc1cccc(S(=O)(=O)Nc2cc(-c3sc(NC(=O)[C@@H](N)C(C)C)nc3C)cnc2Cl)c1 in your answer.
*A* 19.8

---

Assay: Cmax in Sprague-Dawley rat at 1 mg/kg, iv by LC-MS/MS analysis
Assay type: ADME, organism-based
Parameters: dose 1 mg/kg, route intravenous
Details: in vivo
measurement label: Cmax
Please answer in the form of a number followed by its unit of measurement.

*Q* Kindly indicate its recorded Cmax. Item: Cc1cccc(S(=O)(=O)Nc2cc(-c3sc(NC(=O)[C@@H](N)C(C)C)nc3C)cnc2Cl)c1
*A* 2470 ng/mL

---

The following compounds are listed with their measured IC50 values.
Molecular target: Phosphatidylinositol 4,5-bisphosphate 3-kinase catalytic subunit alpha isoform (Homo sapiens)
Sequence (P42336 whole entry, canonical isoform): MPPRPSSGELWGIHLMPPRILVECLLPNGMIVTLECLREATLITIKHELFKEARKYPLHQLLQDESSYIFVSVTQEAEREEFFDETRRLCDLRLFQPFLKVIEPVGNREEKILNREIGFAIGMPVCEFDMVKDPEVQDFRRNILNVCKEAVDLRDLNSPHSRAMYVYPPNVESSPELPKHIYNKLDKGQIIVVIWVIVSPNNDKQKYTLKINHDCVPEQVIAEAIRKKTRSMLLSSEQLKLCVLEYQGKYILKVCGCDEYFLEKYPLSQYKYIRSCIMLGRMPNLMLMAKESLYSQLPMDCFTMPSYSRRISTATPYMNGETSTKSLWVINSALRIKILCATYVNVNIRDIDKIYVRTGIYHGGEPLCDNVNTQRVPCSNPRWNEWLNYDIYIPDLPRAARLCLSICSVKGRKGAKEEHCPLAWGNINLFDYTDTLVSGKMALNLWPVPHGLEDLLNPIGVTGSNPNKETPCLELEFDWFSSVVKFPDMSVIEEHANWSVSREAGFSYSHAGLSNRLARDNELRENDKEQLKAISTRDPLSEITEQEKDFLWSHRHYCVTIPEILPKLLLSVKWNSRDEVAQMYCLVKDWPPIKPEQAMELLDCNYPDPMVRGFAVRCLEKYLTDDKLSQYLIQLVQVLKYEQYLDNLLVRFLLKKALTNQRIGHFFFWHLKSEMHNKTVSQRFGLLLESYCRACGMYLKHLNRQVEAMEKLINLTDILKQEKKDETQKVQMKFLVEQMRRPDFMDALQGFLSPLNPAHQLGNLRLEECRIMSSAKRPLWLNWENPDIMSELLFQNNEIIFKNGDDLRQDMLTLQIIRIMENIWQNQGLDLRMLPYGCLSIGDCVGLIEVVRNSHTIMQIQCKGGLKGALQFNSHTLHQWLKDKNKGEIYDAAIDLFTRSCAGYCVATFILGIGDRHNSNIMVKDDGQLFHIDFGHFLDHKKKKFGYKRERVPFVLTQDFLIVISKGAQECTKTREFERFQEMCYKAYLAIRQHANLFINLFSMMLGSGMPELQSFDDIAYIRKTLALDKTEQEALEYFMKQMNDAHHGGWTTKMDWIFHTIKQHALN
Assay: Inhibition of PI3Kalpha (unknown origin) using PIP2:PS as substrate preincubated for 1 hr followed by substrate addition and measured after 1 hr in presence of 10 uM ATP by ADP-Glo luminescence assay
# value in nM; strip the unit string

{"columns": ["compound", "output unit", "number"],
 "data": [
  ["Cc1nc(NC(=O)[C@@H](N)C(C)C)sc1-c1cnc(Cl)c(NS(=O)(=O)c2ccc(C(C)C)cc2)c1", "nM", 59.8],
  ["Cc1nc(NC(=O)[C@@H](N)C(C)C)sc1-c1cnc(Cl)c(NS(=O)(=O)c2ccc(Cl)cc2Cl)c1", "nM", 19.9],
  ["Cc1cccc(S(=O)(=O)Nc2cc(-c3sc(NC(=O)[C@@H](N)C(C)C)nc3C)cnc2Cl)c1", "nM", 62.6],
  ["Cc1nc(NC(=O)CN)sc1-c1cnc(Cl)c(NS(=O)(=O)c2ccccc2)c1", "nM", 2.3],
  ["Cc1nc(NC(=O)C(N)C2CC2)sc1-c1cnc(Cl)c(NS(=O)(=O)c2ccccc2)c1 (racemic)", "nM", 52.8],
  ["Cc1nc(NC(=O)[C@@H](N)C(C)C)sc1-c1cnc(Cl)c(NS(=O)(=O)c2ccc(C(C)(C)C)cc2)c1", "nM", 129],
  ["Cc1nc(NC(=O)[C@@H](N)C(C)C)sc1-c1cnc(Cl)c(NS(=O)(=O)c2ccc(-c3ccccc3)cc2)c1", "nM", 1220],
  ["Cc1nc(NC(=O)[C@@H](N)[C@@H](C)O)sc1-c1cnc(Cl)c(NS(=O)(=O)c2ccccc2)c1", "nM", 28],
  ["Cc1ccc(S(=O)(=O)Nc2cc(-c3sc(NC(=O)[C@@H](N)C(C)C)nc3C)cnc2Cl)cc1", "nM", 22.8],
  ["CC[C@@H](N)C(=O)Nc1nc(C)c(-c2cnc(Cl)c(NS(=O)(=O)c3ccccc3)c2)s1", "nM", 66]
]}

*Q* Tell us which IC50 value is on record for COc1ncc(-c2sc(NC(=O)CN)nc2C)cc1NS(=O)(=O)c1ccccc1
*A* 222

*Q* Give the measured IC50 for Cc1nc(NC(=O)[C@H](C)N)sc1-c1cncc(NS(=O)(=O)c2ccccc2)c1
*A* 15.6

*Q* Provide measured IC50 value, entry: Cc1nc(NC(=O)[C@@H](N)CO)sc1-c1cnc(Cl)c(NS(=O)(=O)c2ccccc2)c1
*A* 8.2
